Reference source: PubChem BioAssay AID1903

Examples of molecules with documented inhibition follow.
target: Large T antigen (Simian virus 40); assay: SV40 large T antigen inhibitors, biochemical (AID 1903); settings: SV40 large T antigen ATPase/helicase inhibition assay; at 20 µM; stronger effect = higher value
About 1,200 (0.39%) of roughly 310,000 compounds were called active. Not all results are given here. Measured potencies and affinities stand elsewhere.
Give just the number in %; leave the unit off.

Worked examples, 10 molecules total:
>>> measurement("CCOc1cc(/C=C2/NC(=O)N(CC(=O)Nc3cccc(C)c3)C2=O)ccc1O")
12.6
>>> measurement("CN=C1S/C(=C\\c2ccc(O)c(Br)c2)C(=O)N1C")
28.8
>>> measurement("COc1cc(/C=C2\\CCC/C(=C\\c3ccc(O)c(OC)c3)C2=O)ccc1O")
9.57
>>> measurement("COc1ccc(/C=N/NC(=O)/C(=C/c2ccccc2)CCO)cc1")
2.79
>>> measurement("Cc1ccc(C(=O)Nc2ccncc2)cc1[N+](=O)[O-]")
13
>>> measurement("CN=C1S/C(=C\\c2ccc(OCC(=O)OC)c(OC)c2)C(=O)N1C")
3.67
>>> measurement("COc1cc(/C=C2/SC(=S)N(c3c(C)n(C)n(-c4ccccc4)c3=O)C2=O)ccc1O")
27
>>> measurement("CCn1c(-c2cc(OC)c(OC)c(OC)c2)n[nH]c1=S")
8.67
>>> measurement("COc1cc(/C=C2/C(=O)CNC2=O)ccc1O")
37.6
>>> measurement("COc1ccc(N2CCN(C(=O)CN3C(=O)NC(c4ccc(OC)cc4)(c4ccc(OC)cc4)C3=O)CC2)cc1")
6.64

Please look at the following molecule next.
Exam item: Any idea what inhibition came out for "CCOc1cc(/C=C2/NC(=O)N(CC(=O)OC)C2=O)ccc1OC" on Large T antigen (Simian virus 40)?
Marked response: 31.1

* * *

target: Large T antigen (Simian virus 40) (UniProt P03070); test: SV40 large T antigen inhibitors, biochemical (AID 1903); conditions: SV40 large T antigen ATPase/helicase inhibition assay; at 20 µM; stronger effect = higher value
Sequence (P03070 whole entry, looked up): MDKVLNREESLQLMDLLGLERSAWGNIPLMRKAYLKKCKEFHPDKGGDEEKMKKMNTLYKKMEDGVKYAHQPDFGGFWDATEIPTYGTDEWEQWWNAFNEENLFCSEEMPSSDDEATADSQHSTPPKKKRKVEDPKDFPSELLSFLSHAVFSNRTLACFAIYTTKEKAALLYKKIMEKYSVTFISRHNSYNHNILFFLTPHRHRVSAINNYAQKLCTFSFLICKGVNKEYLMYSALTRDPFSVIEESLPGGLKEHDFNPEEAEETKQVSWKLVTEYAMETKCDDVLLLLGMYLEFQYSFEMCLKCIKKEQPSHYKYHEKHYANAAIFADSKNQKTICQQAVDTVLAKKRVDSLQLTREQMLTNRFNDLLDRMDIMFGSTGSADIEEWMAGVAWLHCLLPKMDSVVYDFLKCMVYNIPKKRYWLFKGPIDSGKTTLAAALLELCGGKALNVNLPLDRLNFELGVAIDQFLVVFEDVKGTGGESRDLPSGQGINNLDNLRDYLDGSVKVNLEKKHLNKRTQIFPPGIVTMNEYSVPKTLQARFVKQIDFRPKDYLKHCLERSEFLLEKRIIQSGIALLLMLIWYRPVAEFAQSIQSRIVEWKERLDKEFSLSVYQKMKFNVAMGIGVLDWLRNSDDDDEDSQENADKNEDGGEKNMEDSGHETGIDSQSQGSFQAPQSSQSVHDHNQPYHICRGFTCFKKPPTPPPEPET
Among all 310,000 compounds or so, about 1,200 (0.39%) were called active. Only a sample is shown. Measured potencies and affinities stand elsewhere.
MEASURED_ENDPOINT: inhibition (%)
Give just the number in %; leave the unit off.

Worked examples, 5 compounds total:
>>> measurement("Cn1c(=O)c2sccc2n2c(CCCC(=O)N3CCCCC3)nnc12")
7.77
>>> measurement("NC(=O)N/N=C/c1ccc(-c2ccc([N+](=O)[O-])cc2)o1")
12.1
>>> measurement("COCCNC(=S)N/N=C(\\C)c1ccc(OC(F)F)cc1")
21.1
>>> measurement("CC(C)OP(=O)(OC(C)C)C(C)NC(=O)Cc1ccccc1 (stereo unspecified)")
8.79
>>> measurement("Cc1nn(-c2ccccc2)c(Cl)c1/C=N\\NC(=O)c1cncc(Br)c1")
22

Please look at the following compound next.
Exam item: Report inhibition for "O=C(N/N=C/c1ccc(-c2cccc([N+](=O)[O-])c2)o1)c1ccccc1O" please.
Marked response: 2.92

* * *

molecular target: Large T antigen (Simian virus 40) (UniProt P03070); experiment: SV40 large T antigen inhibitors, biochemical (AID 1903); conditions: SV40 large T antigen ATPase/helicase inhibition assay; at 20 µM; stronger effect = higher value
Among all 310,000 compounds or so, about 1,200 (0.39%) were called active. Only a sample is shown. Potency and affinity values are given separately.
Returns 1 (yes) if the recorded inhibition is greater than or equal to 20%, and 0 (no) otherwise.

Some solved entries appear below for comparison.
>>> discrete_label("Cc1ccc(NC(=O)C2CCN(S(=O)(=O)c3cnc[nH]3)CC2)cc1C")
"0 (no)"
>>> discrete_label("CC1CCN(C(=O)COC(=O)CSc2ccc(C(N)=O)cc2[N+](=O)[O-])CC1")
"0 (no)"
>>> discrete_label("O=C1c2cccnc2C(=O)N1Cc1ccc(S(=O)(=O)N2CCN(c3ccccc3)CC2)cc1")
"0 (no)"
>>> discrete_label("CCOC(=O)C1=C(O)/C(=C\\c2cc(C)n(-c3ccccc3F)c2C)N=C1C")
"0 (no)"

Exam item: Record CC(=O)C1=C(O)C(=O)N(c2ccc(O)cc2)C1c1ccc(C)cc1 (stereo not given) ; criterion: inhibition no lower than 20%. Met?
Marked response: 1 (yes)
